The origin of these recorded values is the Human Domainome abundance scans (Beltran et al. 2025).

B1: FERM and PDZ domain-containing protein 4, residues 75 to 154; numbered along this chain, Q14CM0 (parent)
chain: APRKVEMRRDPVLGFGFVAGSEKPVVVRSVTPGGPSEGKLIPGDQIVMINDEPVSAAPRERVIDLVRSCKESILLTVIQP

Variants of: B1
Protocol details: abundance fitness (aPCA) (normalised: wild type 0, dead -1); higher = more abundant; growth selection in yeast, the domain comes from the species named
Condition parameters: Homo sapiens
Rule: abundance fitness of -0.1 or more gives y; anything lower gives n.

>  <Var>
Q45N

>  <Qualitative label>
n

$$$$
>  <Var>
E22N

>  <Qualitative label>
n

$$$$
>  <Var>
I78P

>  <Qualitative label>
n

$$$$
>  <Var>
K39R

>  <Qualitative label>
y

$$$$
>  <Var>
S68Y

>  <Qualitative label>
y

$$$$
>  <Var>
D44Q

>  <Qualitative label>
n

$$$$
>  <Var>
P80K

>  <Qualitative label>
n

$$$$
>  <Var>
I41Q

>  <Qualitative label>
y

$$$$
>  <Var>
A19H

>  <Qualitative label>
y

$$$$
>  <Var>
M48T

>  <Qualitative label>
y

$$$$
>  <Var>
P42I

>  <Qualitative label>
y

$$$$
>  <Var>
R3E

>  <Qualitative label>
n

$$$$
>  <Var>
S29K

>  <Qualitative label>
y

$$$$
>  <Var>
P11F

>  <Qualitative label>
n

$$$$
>  <Var>
G38N

>  <Qualitative label>
y

$$$$
>  <Var>
V47A

>  <Qualitative label>
n

$$$$
>  <Var>
P32R

>  <Qualitative label>
y

$$$$
>  <Var>
G38V

>  <Qualitative label>
n

$$$$
>  <Var>
N50F

>  <Qualitative label>
n

$$$$
>  <Var>
V27C

>  <Qualitative label>
n

$$$$
>  <Var>
I78E

>  <Qualitative label>
y

$$$$
>  <Var>
N50S

>  <Qualitative label>
n

$$$$
